TESTED_SYSTEM: T1, human latent myostatin (human, UniProt O14793 25-266; O14793 267-375)
T1 construct: non-covalent complex of two propeptides and the mature homodimer; also called human myostatin latent form
T1 sequence 1: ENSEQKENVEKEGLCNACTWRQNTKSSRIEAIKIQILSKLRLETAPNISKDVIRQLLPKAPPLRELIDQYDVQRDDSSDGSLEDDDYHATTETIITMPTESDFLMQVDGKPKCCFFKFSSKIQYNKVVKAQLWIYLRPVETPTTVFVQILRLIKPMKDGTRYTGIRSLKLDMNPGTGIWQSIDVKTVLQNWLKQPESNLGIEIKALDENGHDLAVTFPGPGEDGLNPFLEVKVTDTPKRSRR
T1 sequence 2: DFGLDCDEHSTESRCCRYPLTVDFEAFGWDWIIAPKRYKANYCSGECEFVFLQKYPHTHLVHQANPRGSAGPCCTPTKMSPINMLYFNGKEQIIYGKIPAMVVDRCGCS
TEST_DESCRIPTION: SPR avidity condition pH7.4 37C; pH 7.4
MEASUREMENT_KIND: kon (M⁻¹ s⁻¹)
Answers are plain numbers, in M⁻¹ s⁻¹.

Recorded kon, per entry:
INSERT INTO results (binder, units_of_measure, result_value) VALUES
  ('MS_M103205H781-SG1/M103202L719-SK1 (antibody, human IgG1, kappa, V domains shown, also called MS1032LO02-SG1) VH: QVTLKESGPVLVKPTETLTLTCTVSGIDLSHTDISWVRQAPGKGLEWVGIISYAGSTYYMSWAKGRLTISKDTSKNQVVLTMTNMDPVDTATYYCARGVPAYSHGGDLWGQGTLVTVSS VL: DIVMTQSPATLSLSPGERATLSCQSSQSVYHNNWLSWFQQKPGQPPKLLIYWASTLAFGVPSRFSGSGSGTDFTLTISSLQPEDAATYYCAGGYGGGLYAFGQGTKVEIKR', 'M⁻¹ s⁻¹', 836000),
  ('MS_M103205H781-SG1/M103202L813-SK1 (antibody, human IgG1, kappa, V domains shown, also called MS1032LO03-SG1) VH: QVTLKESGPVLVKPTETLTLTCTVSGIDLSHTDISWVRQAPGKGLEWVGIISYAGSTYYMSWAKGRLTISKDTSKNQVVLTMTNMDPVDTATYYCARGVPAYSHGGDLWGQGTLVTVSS VL: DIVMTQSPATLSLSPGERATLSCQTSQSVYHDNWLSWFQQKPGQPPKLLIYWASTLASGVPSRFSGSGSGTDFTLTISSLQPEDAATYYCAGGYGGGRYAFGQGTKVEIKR', 'M⁻¹ s⁻¹', 981000);

Now look at this one.
Lookup: Quick one: kon of MS_M103205H000-SG1/M103202L000-SK1 (antibody, human IgG1, kappa, V domains shown, humanized; also called MS1032LO00-SG1; Ab001) VH: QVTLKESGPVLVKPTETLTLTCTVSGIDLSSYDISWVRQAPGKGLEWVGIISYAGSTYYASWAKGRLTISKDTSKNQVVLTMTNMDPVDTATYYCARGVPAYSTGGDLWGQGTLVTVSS VL: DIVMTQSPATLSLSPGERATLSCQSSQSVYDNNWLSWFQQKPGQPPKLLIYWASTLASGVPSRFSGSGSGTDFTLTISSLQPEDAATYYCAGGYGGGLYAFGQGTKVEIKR ?
Found: 1.27e+06

Where these numbers come from: patent EP4755449A2
